Listed binders paired with reported pIC50
Biological target: human KLK1 (human, UniProt P06870 25-262, limits assumed)
Sequence (P06870 25-262 limits assumed): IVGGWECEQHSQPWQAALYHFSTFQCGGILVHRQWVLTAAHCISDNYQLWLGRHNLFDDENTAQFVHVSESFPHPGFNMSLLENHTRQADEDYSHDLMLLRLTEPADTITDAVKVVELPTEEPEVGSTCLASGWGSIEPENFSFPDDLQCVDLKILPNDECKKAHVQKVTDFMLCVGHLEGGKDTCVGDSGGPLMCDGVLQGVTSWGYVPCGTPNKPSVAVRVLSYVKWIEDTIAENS
Assay: column 7: KLK1 activity assay, 3 nM KLK1
pIC50: −log10 of the molar value.

{"columns": ["binder", "pIC50"],
 "data": [
  ["9H3 (antibody, V domains shown) VH: QSVKESEGGLFKPTDTLTLTCTVSGFSLSGYGVSWVRQAPGKGLEYIGFIGSGGSAYYASWAKSRSTITRNTNLNTVTLKMTRLTAADTATYFCARDNVGGDMSLDIWGPGTLVTVSS VL: DIVMTQTPASVSEPVGGTVTIKCQASQNINNYLSWYQQKPGQPPKQLIYAASTLASGVPSRFKGSGSGTQFTLTISDLECADAATYYCHQDYTSNNVDNTFGGGTEVVVK", "< 7.00"]
]}

Request: Query: pIC50; subject: 9H5 (antibody, V domains shown, Rabbit monoclonal; also called Chimeric 9H5; KLK5.9H5 (complex sample)) VH: QSVKESEGGLFKPTDNLTLTCTVSGFSLSSYGVSWVRQAPGNGLEYIGFIGSGGFAYYASWAKSRSTITRNTNLNTVTLKMTSLTAADTATYFCARDDVGGGKSLDIWGPGTVVTVSV VL: NIVMTQTPASVEAAVGGTVTINCQASQSISSYLSWYQQKSGQRPKLLIFSASTLASGVPSRFTGSGSGTQFTLTISDLQCADAATYYCHQDYTSSNVDNTFGGGTEVVVK
Response: < 7.00
